# Tested on: SKOV-3
# ASSAY_PROCEDURE: MTT in vitro antiproliferative assay, SKOV-3
# Type: cell-based
# PROTOCOL_CONDITIONS: Homo sapiens, SK-OV-3; SKOV-3, MTT, 48 h drug exposure; read-out: TGI
# Method: The in vitro antiproliferative activities of the novel triazolo[3,4-b]thiadiazole derivatives were estimated in ten well-established human cancer cell lines including three ovarian (SKOV-3, UWB 1.289, and UWB 1.289+BRCA1), five colorectal adenocarcinoma (DLD-1, HT-29, LS174T, LoVo, and SW403), and two prostate cancer cell lines (PC-3 and DU-145). […] The in vitro anticancer effect of a tested compound on cell viability was determined by three dose–response parameters termed GI50, TGI, and IC50. […]
ENDPOINT: IC (TGI)

*Q* Given the molecule COc1cc(Cc2nnc3sc(/C=C/c4ccc(Cl)cc4)nn23)c(S(=O)(=O)N(C(C)C)C(C)C)cc1OC [Compound 10a] , what is its reported IC (TGI)?
*A* > 100 µM

*Q* Follow-up item: `CCN(CC)S(=O)(=O)c1cc(OC)c(OC)cc1Cc1nnc2sc(/C=C/c3ccc([N+](=O)[O-])cc3)nn12`
*A* > 100 µM

*Q* Now try `COc1cc(Cc2nnc3sc(-c4ccc([N+](=O)[O-])cc4)nn23)c(S(=O)(=O)N(C(C)C)C(C)C)cc1OC` .
*A* 28 µM

*Q* Further, for `CCN(CC)S(=O)(=O)c1cc(OC)c(OC)cc1Cc1nnc2sc(-c3ccc(F)cc3)nn12` ?
*A* > 100 µM
